System: PC-3
Experiment notes: Antiproliferative activity against human PC3 cells after 72 hrs by WST-1 assay
Format: functional, cell-based
Run conditions: PC-3, 72 h
pIC50: −log10 of the molar value.
Endpoint label: pIC50

Check out these entries, answers already filled in.
// recorded pIC50 for `CC(C)Oc1ccc(N2CCN(Cc3ccc(Br)cc3)CC2)cc1NC(=O)c1cnccn1` : 4.50

Reported pIC50 of `CC(=O)Nc1ccc(CN2CCN(c3ccc(OC(C)C)c(NC(=O)c4cnccn4)c3)CC2)cc1` : 4.61

The reported pIC50 of the compound `CC(C)Oc1ccc(N2CCN(Cc3ccc(N)cc3)CC2)cc1NC(=O)c1cnccn1` was 4.70

Documented pIC50 of `CC(C)Oc1ccc(N2CCN(Cc3ccc(C(=O)O)cc3)CC2)cc1NC(=O)c1cnccn1` : 4.13

(a) Cc1ccc(CN2CCN(c3ccc(OC(C)C)c(NC(=O)c4cnccn4)c3)CC2)cc1
(b) CC(C)Oc1ccc(N2CCN(Cc3ccc(N(C)C)cc3)CC2)cc1NC(=O)c1cnccn1
From the items above, decide which of a and b has the lower pIC50 reading. // caller expects the label of the chosen entry b

(I) Cc1ccc(-c2ccc3c(c2)C=C(C(=O)Nc2ccc(C[N+](C)(C)C4CCOCC4)cc2)CCC3)cc1
(II) CCN(CC)c1ccc(CN2CCN(c3ccc(OC(C)C)c(NC(=O)c4cnccn4)c3)CC2)cc1
(III) COC(=O)c1ccc(CN2CCN(c3ccc(OC(C)C)c(NC(=O)c4cnccn4)c3)CC2)cc1
Please give the order of these compounds when sorted by pIC50, largest value leading. Form field (ranking): labels in requested order. II, I, III
(II: 5.19, I: 4.42, III: 4.04)
